- measured target: JAK3 (JH1 and JH2 domain) (Homo sapiens, UniProt P52333)
- Sequence (P52333 521-1111 limits assumed): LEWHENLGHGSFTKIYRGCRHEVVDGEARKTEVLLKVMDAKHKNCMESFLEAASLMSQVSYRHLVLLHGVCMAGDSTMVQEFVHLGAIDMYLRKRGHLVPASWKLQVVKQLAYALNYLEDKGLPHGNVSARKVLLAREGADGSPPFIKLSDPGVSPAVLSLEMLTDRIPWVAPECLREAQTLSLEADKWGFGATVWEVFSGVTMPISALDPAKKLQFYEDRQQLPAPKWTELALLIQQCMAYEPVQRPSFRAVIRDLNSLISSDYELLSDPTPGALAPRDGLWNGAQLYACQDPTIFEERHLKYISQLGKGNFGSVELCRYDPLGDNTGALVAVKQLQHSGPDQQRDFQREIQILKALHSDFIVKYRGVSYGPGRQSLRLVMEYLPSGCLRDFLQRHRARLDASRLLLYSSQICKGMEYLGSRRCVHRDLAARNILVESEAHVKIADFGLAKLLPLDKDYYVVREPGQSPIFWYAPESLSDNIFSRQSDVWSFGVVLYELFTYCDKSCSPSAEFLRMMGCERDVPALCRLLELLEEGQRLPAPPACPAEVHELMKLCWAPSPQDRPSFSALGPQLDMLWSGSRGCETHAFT
- test details: JAK3 Kinase Assay (ELISA of peptide substrate phosphorylation)
- test conditions: purified JAK3 enzyme, 10 μM ATP, biotinylated peptide substrate, 1 hour at room temperature
- Description: JAK3 enzyme activity was assayed relative to enzyme phosphorylation using the method described herein. Sf21 cells derived from the ovarian tissue of the fall armyworm Spodotera frugiperda were obtained from Pharmingen (San Diego, Calif.) and maintained at a temperature of about 26-28° C. in 1 l Bellco spinner flasks at 60-90 rpm. Cell viability was maintained at 95-100%, as determined by a tryptan blue dye exclusion test. […]
Measured IC50, listed per entry.
Please respond with the number in nM and leave the unit unwritten.

// solved cases for IC50 follow
compound	measured target	unit info	experimental result
CN1CCN(CCCNC(=O)OCC2(O)Cn3c4ccccc4c4c5c(c6c7ccccc7n(c6c43)C2)C(=O)NC5)CC1 (stereo not drawn)	JAK3 (JH1 and JH2 domain) (Homo sapiens, UniProt P52333)	nM	23
O=C(NC1CCN(Cc2ccccc2)CC1)OC1CCn2c3ccccc3c3c4c(c5c6ccccc6n(c5c32)CC1)C(=O)NC4 (stereo not drawn)	JAK3 (JH1 and JH2 domain) (Homo sapiens, UniProt P52333)	nM	3000
COCCNC(=O)C1(O)Cn2c3ccccc3c3c4c(c5c6ccccc6n(c5c32)CC1O)C(=O)NC4=O (stereo not drawn)	JAK3 (JH1 and JH2 domain) (Homo sapiens, UniProt P52333)	nM	52

Data request, read-out IC50, for O=C1NC(=O)c2c1c1c3ccccc3n3c1c1c2c2ccccc2n1CC(OC(=O)N1CCN(CCO)CC1)C(O)C3 (stereo not drawn)
127
